This collection of values is drawn from ChEMBL document CHEMBL4342426.

Assign selectivity ratio to each entry below.
Method description: in vitro
Settings: human, MRC5 SV2 cells
Description: Selectivity index, ratio of IC50 for human MRC5 SV2 cells to IC50 for Trypanosoma cruzi Tulahuen CL2 amastigotes infected in human MRC5 SV2 cells
Give a plain numeric answer without units written out.

INPUT: Suppose we examine the compound O=C(OCc1ccccc1)N1CCCC(c2cn3cccnc3n2)C1 (stereo not given) ; what selectivity ratio value has been reported?
OUTPUT: 1.88

INPUT: Suppose we examine the compound `CCN(C(=O)CCc1nc2ncccc2[nH]1)c1ccccc1` ; what selectivity ratio value has been reported?
OUTPUT: 1.3

INPUT: Suppose we examine the compound `O=C(Nc1ccc(-c2cc3ncccc3[nH]2)cc1)c1ccccc1` ; what selectivity ratio value has been reported?
OUTPUT: 2.54

----------
Method description: in vitro
Settings: mouse, liver microsomes
Description: Metabolic stability in mouse liver microsomes assessed as intrinsic clearance at 0.5 uM incubated for 30 mins by LC-MS/MS analysis
Assign CLint scaled at 0.5 h, 0.5 µM to each entry below.
Could you give me the number in mL/min/kg? Just the number is fine.

INPUT: Suppose we examine the molecule `O=C(c1ccccc1)N1CCC(c2cc3ncccc3[nH]2)CC1` ; what CLint scaled at 0.5 h, 0.5 µM value has been reported?
OUTPUT: 4520

INPUT: Suppose we examine the molecule O=C(c1cc(C2CC2)no1)N1CCCC(c2cc3ncccc3[nH]2)C1 (centres undefined) ; what CLint scaled at 0.5 h, 0.5 µM value has been reported?
OUTPUT: 1610

INPUT: Suppose we examine the molecule Nc1cc(C2CCCN(C(=O)c3cc(C(F)(F)F)no3)C2)[nH]n1 (centres undefined) ; what CLint scaled at 0.5 h, 0.5 µM value has been reported?
OUTPUT: 175

INPUT: Suppose we examine the molecule O=C(c1ccc(F)cc1)N1CCCC(c2cc3ncc(Cl)cc3[nH]2)C1 (centres undefined) ; what CLint scaled at 0.5 h, 0.5 µM value has been reported?
OUTPUT: 970

----------
Method description: in vitro
Settings: human, liver microsomes
Description: Metabolic stability in human liver microsomes assessed as intrinsic clearance at 0.5 uM incubated for 30 mins by LC-MS/MS analysis
Assign microsomal CLint at 0.5 h, 0.5 µM to each entry below.
Could you give me the number in µL/min/mg? Just the number is fine.

INPUT: Suppose we examine the compound O=C(c1ccccc1)N1CCCC(c2cc3ncccc3[nH]2)C1 (centres undefined) ; what microsomal CLint at 0.5 h, 0.5 µM value has been reported?
OUTPUT: 24.7

INPUT: Suppose we examine the compound Cc1nc(C)c(C(=O)N2CCCC(c3cc4ncccc4[nH]3)C2)s1 (centres undefined) ; what microsomal CLint at 0.5 h, 0.5 µM value has been reported?
OUTPUT: 26.2

INPUT: Suppose we examine the compound `O=C(Cc1ccccc1)N1CCN(c2nc3ccccc3s2)CC1` ; what microsomal CLint at 0.5 h, 0.5 µM value has been reported?
OUTPUT: 126

INPUT: Suppose we examine the compound O=C(c1ccc(F)cc1)N1CCCC(c2cc3nc(Cl)ccc3[nH]2)C1 (centres undefined) ; what microsomal CLint at 0.5 h, 0.5 µM value has been reported?
OUTPUT: 78.4

INPUT: Suppose we examine the compound CN(CC(O)c1cc2ncccc2n1S(=O)(=O)c1ccccc1)C(=O)c1ccccc1 (centres undefined) ; what microsomal CLint at 0.5 h, 0.5 µM value has been reported?
OUTPUT: 160

INPUT: Suppose we examine the compound CC(C)c1cc(C(=O)N2CCCC(c3cc4ncccc4[nH]3)C2)on1 (centres undefined) ; what microsomal CLint at 0.5 h, 0.5 µM value has been reported?
OUTPUT: 37

INPUT: Suppose we examine the compound COc1cc(C(=O)N2CCCC(c3cc4ncccc4[nH]3)C2)on1 (centres undefined) ; what microsomal CLint at 0.5 h, 0.5 µM value has been reported?
OUTPUT: 36.9
